- assay_system: T1, human VPAC1 receptor (human, UniProt P32241 31-457)
- T1 sequence (looked up): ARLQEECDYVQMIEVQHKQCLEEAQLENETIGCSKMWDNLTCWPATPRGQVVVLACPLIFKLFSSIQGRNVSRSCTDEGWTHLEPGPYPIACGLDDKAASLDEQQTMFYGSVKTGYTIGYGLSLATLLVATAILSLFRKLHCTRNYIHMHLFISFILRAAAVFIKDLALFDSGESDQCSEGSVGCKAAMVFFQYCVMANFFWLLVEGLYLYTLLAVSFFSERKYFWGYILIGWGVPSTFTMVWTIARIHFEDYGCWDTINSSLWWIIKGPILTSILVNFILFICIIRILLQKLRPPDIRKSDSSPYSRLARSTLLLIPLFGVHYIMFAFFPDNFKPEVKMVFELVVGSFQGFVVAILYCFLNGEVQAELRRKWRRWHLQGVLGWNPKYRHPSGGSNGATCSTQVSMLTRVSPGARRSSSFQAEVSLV
- assay_summary: cell-based or functional assay
Where no end group is shown, it is not given here.
Decide using EC50 cAMP, DiscoveRx alone. Strictly below 5 nM: Y. Equal to or above 5 nM: N.

Please review the entries below; each comes with its answer.
binder	group
HSDAVFTDNYTRLRKQVAAIKYLQSIKNKRYGGPSSGAPPPS (not fully specified) [P19]	Y
HGDAVFTDNYTRLRKQVAAKKYLQSIKNKRYGGPSSGAPPPS [P43]	N
HSDALFTDNYTRLRKQVAAKKYLQSIKNKRYGGPSSGAPPPS (not fully specified) [P61]	Y

Consider the record given below.
Determine whether this binder shows EC50 cAMP, DiscoveRx lower than 5 nM (ties excluded): HSDAVFTDNYTRLRKQVAAKKYLQSIKNKIYGGPSSGAPPPS [P76]
Y

Source of measurements: patent US20080026996A1
